Catalogue of IC50 values
- TESTED ON: Mu-type opioid receptor (Mus musculus, UniProt P42866)
- Sequence (P42866 whole entry): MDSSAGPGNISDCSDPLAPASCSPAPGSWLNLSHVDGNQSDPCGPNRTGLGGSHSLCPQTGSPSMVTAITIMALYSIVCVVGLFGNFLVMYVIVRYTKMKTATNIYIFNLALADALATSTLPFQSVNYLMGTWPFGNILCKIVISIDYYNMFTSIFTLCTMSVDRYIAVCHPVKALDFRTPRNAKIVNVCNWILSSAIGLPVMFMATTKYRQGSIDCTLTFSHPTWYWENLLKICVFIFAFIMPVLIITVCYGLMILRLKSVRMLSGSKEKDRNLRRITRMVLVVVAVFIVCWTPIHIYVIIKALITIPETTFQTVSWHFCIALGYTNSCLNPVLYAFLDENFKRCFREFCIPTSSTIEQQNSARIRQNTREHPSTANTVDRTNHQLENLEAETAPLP
- EXPERIMENTAL PROTOCOL: Displacement of [125I]-DAMGO from mouse FLAG-tagged Mu-type opioid receptor expressed in HEK293 cell membranes after 60 mins by gamma counting analysis
MEASUREMENT KIND: IC50 (nM)

1. Cc1cc(O)cc(C)c1C[C@H](N)C(=O)N[C@H](C)C(=O)N[C@H]1Cc2ccc3ccccc3c2CN(CC(N)=O)C1=O 1.78
2. Cc1cc(O)cc(C)c1C[C@H](N)C(=O)N[C@H](C)C(=O)N[C@H]1Cc2c(ccc3ccccc23)CN(CC(N)=O)C1=O 0.39
3. Cc1cc(O)cc(C)c1C[C@H](N)C(=O)N[C@H](CCCNC(=N)N)C(=O)N[C@H]1Cc2ccccc2N(CC(N)=O)C1=O 1.62
4. Cc1cc(O)cc(C)c1C[C@H](N)C(=O)N[C@H](CCCNC(=N)N)C(=O)N[C@H]1Cc2c(ccc3ccccc23)CN(CC(N)=O)C1=O 0.33
5. Cc1cc(O)cc(C)c1C[C@H](N)C(=O)N(C)[C@H](C)C(=O)N[C@H]1Cc2c(ccc3ccccc23)CN(CC(N)=O)C1=O 0.35
6. Cc1cc(O)cc(C)c1C[C@H](N)C(=O)N[C@H](CCCNC(=N)N)C(=O)N[C@H]1Cc2ccc3ccccc3c2CN(CC(N)=O)C1=O 2.19
7. Cc1cc(O)cc(C)c1C[C@H](N)C(=O)N[C@H](CCCNC(=N)N)C(=O)N[C@H]1Cc2ccc(Br)cc2CN(CC(N)=O)C1=O 0.76

====

- TESTED ON: Mu-type opioid receptor (Homo sapiens)
- Sequence (P35372 whole entry): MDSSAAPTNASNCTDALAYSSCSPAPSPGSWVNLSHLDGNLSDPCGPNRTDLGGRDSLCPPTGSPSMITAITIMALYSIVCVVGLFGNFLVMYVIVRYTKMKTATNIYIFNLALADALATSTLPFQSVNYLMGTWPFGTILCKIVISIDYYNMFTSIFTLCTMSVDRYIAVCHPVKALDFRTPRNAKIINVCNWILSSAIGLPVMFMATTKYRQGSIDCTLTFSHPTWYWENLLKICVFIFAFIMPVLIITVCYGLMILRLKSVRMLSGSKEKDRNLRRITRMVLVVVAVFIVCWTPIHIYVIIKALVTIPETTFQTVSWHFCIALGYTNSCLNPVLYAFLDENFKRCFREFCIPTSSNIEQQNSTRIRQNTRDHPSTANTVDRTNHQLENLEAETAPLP
MEASUREMENT KIND: Ki (nM)

1) Cc1cc(O)cc(C)c1C[C@H](N)C(=O)N[C@H](CCCN=C(N)N)C(=O)N[C@H]1Cc2ccccc2CN(CC(N)=O)C1=O 0.15

====

- TESTED ON: Delta-type opioid receptor (Mus musculus, UniProt P32300)
- Sequence (P32300 whole entry): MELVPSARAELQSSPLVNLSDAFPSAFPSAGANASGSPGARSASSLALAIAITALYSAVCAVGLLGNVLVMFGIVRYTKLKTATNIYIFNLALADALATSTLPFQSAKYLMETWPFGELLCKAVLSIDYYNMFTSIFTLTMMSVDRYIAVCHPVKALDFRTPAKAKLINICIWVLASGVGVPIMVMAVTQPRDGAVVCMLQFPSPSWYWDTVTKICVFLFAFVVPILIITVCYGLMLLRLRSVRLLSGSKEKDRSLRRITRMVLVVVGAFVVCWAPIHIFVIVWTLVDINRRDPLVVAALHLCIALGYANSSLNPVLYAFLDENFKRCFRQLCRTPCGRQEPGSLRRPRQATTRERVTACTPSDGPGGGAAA
- EXPERIMENTAL PROTOCOL: Agonist activity at delta-type opioid receptor in mouse vas deferens assessed as inhibition of electrically stimulated contractions
- Type: functional
pIC50: −log10 of the molar value.
MEASUREMENT KIND: pIC50

1) Cc1cc(O)cc(C)c1C[C@H](N)C(=O)N[C@H](CCCNC(=N)N)C(=O)N[C@H]1Cc2ccc(Br)cc2CN(CC(N)=O)C1=O 8.07
2) Cc1cc(O)cc(C)c1C[C@H](N)C(=O)N[C@H](CCCNC(=N)N)C(=O)N[C@H]1Cc2c(ccc3ccccc23)CN(CC(N)=O)C1=O 8.85
3) Cc1cc(O)cc(C)c1C[C@H](N)C(=O)N(C)[C@H](C)C(=O)N[C@H]1Cc2c(ccc3ccccc23)CN(CC(N)=O)C1=O 8.96
4) Cc1cc(O)cc(C)c1C[C@H](N)C(=O)N[C@H](C)C(=O)N[C@H]1Cc2c(ccc3ccccc23)CN(CC(N)=O)C1=O 9.07
5) C[C@@H](NC(=O)[C@@H](N)Cc1ccc(O)cc1)C(=O)N[C@H]1Cc2ccccc2CN(CC(N)=O)C1=O 7.33
6) Cc1cc(O)cc(C)c1C[C@H](N)C(=O)N[C@H](CCCNC(=N)N)C(=O)N[C@H]1Cc2ccc3ccccc3c2CN(CC(N)=O)C1=O 6.94
7) Cc1cc(O)cc(C)c1C[C@H](N)C(=O)N[C@H](CCCNC(=N)N)C(=O)N[C@H]1Cc2ccccc2N(CC(N)=O)C1=O 7.04
